The reported measurements were obtained from patent US20250243286A1.

Assign IC90 [nM] (assay not given) to each entry below.
# target-or-system: ActRIIA and ActRIIB (on TGFB/SMAD SBE Reporter HEK293 cells) (human)
# Sequence (chain, as listed by the source, chain 1 of 2): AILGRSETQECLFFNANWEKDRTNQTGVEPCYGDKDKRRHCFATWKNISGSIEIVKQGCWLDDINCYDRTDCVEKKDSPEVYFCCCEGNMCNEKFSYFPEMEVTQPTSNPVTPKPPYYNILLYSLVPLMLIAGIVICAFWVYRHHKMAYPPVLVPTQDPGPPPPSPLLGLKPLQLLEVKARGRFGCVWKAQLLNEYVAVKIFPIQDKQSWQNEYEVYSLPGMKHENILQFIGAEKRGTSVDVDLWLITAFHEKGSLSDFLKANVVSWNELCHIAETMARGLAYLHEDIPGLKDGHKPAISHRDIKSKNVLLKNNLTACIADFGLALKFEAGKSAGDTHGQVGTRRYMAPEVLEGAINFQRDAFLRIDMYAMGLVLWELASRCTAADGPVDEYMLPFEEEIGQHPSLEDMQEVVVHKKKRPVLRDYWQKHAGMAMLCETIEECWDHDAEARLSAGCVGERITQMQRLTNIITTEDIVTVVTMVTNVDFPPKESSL
# Sequence (chain, as listed by the source, chain 2 of 2): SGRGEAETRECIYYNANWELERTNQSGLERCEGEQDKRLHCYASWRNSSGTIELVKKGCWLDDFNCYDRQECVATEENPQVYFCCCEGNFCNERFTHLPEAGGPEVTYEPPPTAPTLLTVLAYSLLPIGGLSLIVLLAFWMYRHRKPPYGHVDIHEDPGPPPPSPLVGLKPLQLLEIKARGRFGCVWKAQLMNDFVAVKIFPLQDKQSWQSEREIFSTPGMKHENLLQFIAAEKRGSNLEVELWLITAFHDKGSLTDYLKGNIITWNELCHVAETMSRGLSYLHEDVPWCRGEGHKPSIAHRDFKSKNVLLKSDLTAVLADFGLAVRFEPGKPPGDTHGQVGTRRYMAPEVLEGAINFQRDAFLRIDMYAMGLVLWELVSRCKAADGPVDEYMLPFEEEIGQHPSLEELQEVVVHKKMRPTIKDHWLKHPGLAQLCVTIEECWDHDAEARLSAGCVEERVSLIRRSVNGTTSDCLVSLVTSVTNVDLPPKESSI
# assay-text: cell-based or functional assay
Provide only the numeric value, understood in nM.

Given the entry Antibody Hefaknöpfla (antibody, V domains shown, full-length IgG) VH: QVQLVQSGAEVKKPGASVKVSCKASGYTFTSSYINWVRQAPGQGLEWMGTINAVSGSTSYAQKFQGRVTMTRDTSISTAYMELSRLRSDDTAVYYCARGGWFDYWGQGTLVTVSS VL: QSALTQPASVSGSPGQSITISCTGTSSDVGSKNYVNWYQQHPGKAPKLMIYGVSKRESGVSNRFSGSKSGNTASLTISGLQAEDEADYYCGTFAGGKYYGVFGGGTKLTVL , report its measured IC90 [nM] (assay not given).
1.6

Same for Antibody Bäratatza (antibody, V domains shown, full-length IgG) VH: QVQLVQSGAEVKKPGASVKVSCKASGYTFTSSYINWVRQAPGQGLEWMGTINAVSGSTSYAQKFQGRVTMTRDTSISTAYMELSRLRSDDTAVYYCARSGWFDYWGQGTLVTVSS VL: QSALTQPASVSGSPGQSITISCTGTSSDVGSYNYVNWYQQHPGKAPKLMIYGVSKQQSGVSNRFSGSKSGNTASLTISGLQAEDEADYYCGTFAGGSYYGVFGGGTKLTVL
2.77

Same for Antibody Riaba (antibody, V domains shown, full-length IgG) VH: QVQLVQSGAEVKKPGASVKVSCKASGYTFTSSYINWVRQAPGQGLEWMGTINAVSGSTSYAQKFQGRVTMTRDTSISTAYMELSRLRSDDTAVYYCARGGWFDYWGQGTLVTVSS VL: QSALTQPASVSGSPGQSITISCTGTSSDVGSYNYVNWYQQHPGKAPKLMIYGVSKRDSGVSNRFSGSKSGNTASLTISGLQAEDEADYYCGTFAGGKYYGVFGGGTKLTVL
1.6

Same for Bimagrumab (antibody, V domains shown) VH: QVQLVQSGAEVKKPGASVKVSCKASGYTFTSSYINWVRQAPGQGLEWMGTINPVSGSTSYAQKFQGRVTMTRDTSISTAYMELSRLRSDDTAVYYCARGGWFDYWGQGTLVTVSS VL: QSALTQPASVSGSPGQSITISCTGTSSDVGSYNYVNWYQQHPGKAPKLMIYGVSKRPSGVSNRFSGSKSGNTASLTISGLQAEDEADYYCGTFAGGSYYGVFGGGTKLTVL
6.57
